// values below are log10 of IC50; system is Botulinum neurotoxin type A (Clostridium botulinum, UniProt P0DPI0)
Sequence (P0DPI0 2-448 limits assumed): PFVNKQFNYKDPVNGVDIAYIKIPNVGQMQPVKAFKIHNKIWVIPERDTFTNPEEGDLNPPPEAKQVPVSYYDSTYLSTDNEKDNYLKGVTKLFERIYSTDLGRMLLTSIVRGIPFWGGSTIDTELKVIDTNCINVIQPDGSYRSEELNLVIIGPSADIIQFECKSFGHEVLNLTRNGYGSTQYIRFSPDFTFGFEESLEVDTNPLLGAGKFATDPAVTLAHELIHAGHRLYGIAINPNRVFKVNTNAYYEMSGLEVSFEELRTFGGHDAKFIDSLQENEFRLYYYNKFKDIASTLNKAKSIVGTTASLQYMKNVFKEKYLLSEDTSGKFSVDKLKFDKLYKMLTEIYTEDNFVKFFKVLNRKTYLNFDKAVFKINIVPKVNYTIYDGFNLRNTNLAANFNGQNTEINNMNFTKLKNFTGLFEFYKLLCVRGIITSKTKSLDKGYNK
Please keep in mind that the values are log10 of IC50 expressed in µM.

See these solved cases before continuing.
[
  {
    "compound": "Cc1cc(Cl)ccc1NC(c1ccccn1)c1ccc2cccnc2c1O (stereo not given)",
    "log10 of IC50": 0.72
  },
  {
    "compound": "Cc1ccc(C(Nc2ccccn2)c2ccc3cccnc3c2O)cc1 (stereo not given)",
    "log10 of IC50": 0.40
  }
]

Could you now consider this next compound?
Botulinum neurotoxin type A (Clostridium botulinum, UniProt P0DPI0) data for Cc1cccc(NC(c2cccnc2)c2ccc3cccnc3c2O)c1 (stereo not given) ; its log10 of IC50: 0.83

---

- Test system: Plasma
- test_name: Half life in Sprague-Dawley rat plasma at 1 uM by LC-MS/MS analysis
- Assay type: ADME, cell-free
# reported log10 of t1/2; entries follow
Please note: log10 values; quantity t1/2; unit h.

[
  {
    "compound": "Oc1c(Cl)cc(Cl)c2cccnc12 [CHLOROXINE]",
    "experimental_system": "Plasma",
    "assay_result": 1.83
  },
  {
    "compound": "Oc1c(CNc2ccccn2)ccc2cccnc12",
    "experimental_system": "Plasma",
    "assay_result": 1.11
  }
]

Record Cc1ccnc(NC(c2ccc([N+](=O)[O-])cc2)c2ccc3ccc(C)nc3c2O)c1 (stereo unspecified) , field log10 of t1/2: 2.04

Reported log10 of t1/2 ( COc1ccc(C(Nc2ccccn2)c2ccc3ccc(C)nc3c2O)cc1 (stereo unspecified) ) = 0.70

For record Oc1c(C(Nc2ccccn2)c2ccccc2)ccc2cccnc12 (stereo unspecified) the listed log10 of t1/2 is 1.13

Lab book: log10 of t1/2 of Oc1c(I)cc(Cl)c2cccnc12 [CLIOQUINOL] noted as 2.13

---

- experimental_system: UniProt:P0DPI0
attribute_measured: IC50 (µM)
Your answer is read as µM, so omit the unit and give the number.

Field: example entries. Status: answers known.
[
  {
    "compound": "COc1ccc(C(Nc2ccccn2)c2ccc3ccc(C)nc3c2O)cc1 (stereo unspecified)",
    "assay_result": 1.9
  },
  {
    "compound": "Oc1c(CNc2ccccn2)ccc2cccnc12",
    "assay_result": 26.7
  },
  {
    "compound": "Cc1ccnc(NC(c2cccc([N+](=O)[O-])c2)c2ccc3cccnc3c2O)c1 (stereo unspecified)",
    "assay_result": 4.6
  }
]

We next turn to a different compound, shown below.
Given the compound CCOC(=O)c1ccc(NC(c2ccccn2)c2ccc3cccnc3c2O)cc1 (stereo unspecified) and test system UniProt:P0DPI0, the measured IC50 is 5.1

---

- Tested on: Serum
- test_name: Drug uptake in serum of alzheimer patient at 250 to 750 mg, po
- Assay type: ADME, cell-free
- experimental_parameters: human, read-out: Drug uptake
attribute_measured: concentration
Write the figure, then the unit, nothing else.

Sample Oc1c(I)cc(Cl)c2cccnc12 , system: Serum. Its concentration is 13 µM

---

- Tested on: Plasma
- test_name: Metabolic stability in human plasma assessed as compound remaining at 1 uM measured at 3 hrs by LC-MS/MS analysis
- Assay type: ADME, cell-free
attribute_measured: Stability
I'd appreciate it if you included the unit after the number.

Reference set, count: 2
[
  {
    "compound": "Cc1ccc2c(Cl)cc(Cl)c(O)c2n1",
    "Stability": "92.2%"
  },
  {
    "compound": "Cc1ccnc(NC(c2ccc([N+](=O)[O-])cc2)c2ccc3cccnc3c2O)c1 (stereo not drawn)",
    "Stability": "90.9%"
  }
]

For the next question, use this compound.
Short answer on Plasma for Cc1ccnc(NC(c2ccc([N+](=O)[O-])cc2)c2ccc3ccc(C)nc3c2O)c1 (stereo not drawn) , Stability: 92.2%

---

// reported IC50 for each item listed
- experimental_system: UniProtKB P0DPI0

A selection of reference data follows.
[
  {
    "compound": "Cc1cccc(NC(c2ccc(C)s2)c2ccc3ccc(C)nc3c2O)n1 (stereo not drawn)",
    "experimental_system": "UniProtKB P0DPI0",
    "IC50": "> 100 µM"
  },
  {
    "compound": "CC(C)Oc1c(C(Nc2ccccn2)c2ccccc2)ccc2cccnc12 (stereo not drawn)",
    "experimental_system": "UniProtKB P0DPI0",
    "IC50": "> 100 µM"
  }
]

Looking up CCC(=O)NC(c1ccc(N(C)C)cc1)c1ccc2cccnc2c1O (stereo not drawn) , I found its IC50 recorded as > 100 µM

---

In what follows, each item is paired with its pIC50 for Botulinum neurotoxin type A (Clostridium botulinum, UniProt P0DPI0).
Schema: pIC50 number; meaning minus log10 of the concentration expressed in molar units.

Reference set, count: 10
[
  {
    "molecule": "Cc1ccc2ccc(C(Nc3ccccn3)c3cccc(OCc4ccccc4)c3)c(O)c2n1 (configuration not stated)",
    "assay_result": 5.85
  },
  {
    "molecule": "Oc1c(Cl)cc(Cl)c2cccnc12 [CHLOROXINE]",
    "assay_result": 4.94
  },
  {
    "molecule": "CN(C)c1ccc(C(NC(=O)Cc2ccccc2)c2ccc3cccnc3c2O)cc1 (configuration not stated)",
    "assay_result": 5.15
  },
  {
    "molecule": "COc1ccc(C(Nc2ccccn2)c2ccc3cccnc3c2O)cc1 (configuration not stated)",
    "assay_result": 5.25
  },
  {
    "molecule": "Cc1cccc(NC(c2cccc(OCc3ccccc3)c2)c2ccc3ccc(C)nc3c2O)n1 (configuration not stated)",
    "assay_result": 5.46
  },
  {
    "molecule": "Cc1ccccc1C(Nc1ccccn1)c1ccc2cccnc2c1O (configuration not stated)",
    "assay_result": 5.44
  },
  {
    "molecule": "COc1ccc(C)cc1NC(c1cccnc1)c1ccc2cccnc2c1O (configuration not stated)",
    "assay_result": 5.36
  },
  {
    "molecule": "Cc1ccnc(NC(c2ccc(N(C)C)cc2)c2ccc3cccnc3c2O)c1 (configuration not stated)",
    "assay_result": 5.46
  },
  {
    "molecule": "Cc1cccc(NC(c2ccc(N(C)C)cc2)c2ccc3ccc(C)nc3c2O)n1 (configuration not stated)",
    "assay_result": 5.35
  },
  {
    "molecule": "Cc1ccc2ccc(C(Nc3ccccn3)c3ccccc3C)c(O)c2n1 (configuration not stated)",
    "assay_result": 5.80
  }
]

Lab entry: Botulinum neurotoxin type A (Clostridium botulinum, UniProt P0DPI0) assay, molecule Cc1ccnc(NC(c2cccc([N+](=O)[O-])c2)c2ccc3ccc(C)nc3c2O)c1 (configuration not stated) , pIC50 = 5.96

Reported Botulinum neurotoxin type A (Clostridium botulinum, UniProt P0DPI0) pIC50 for item Cc1ccc2ccc(C(Nc3ccccn3)c3ccc(F)cc3)c(O)c2n1 (configuration not stated) was 5.55

The molecule Cc1ccnc(NC(c2ccc([N+](=O)[O-])cc2)c2ccc3ccc(C)nc3c2O)c1 (configuration not stated) , when measured on Botulinum neurotoxin type A (Clostridium botulinum, UniProt P0DPI0), yielded pIC50 of 6.00

# value of pIC50, Botulinum neurotoxin type A (Clostridium botulinum, UniProt P0DPI0), item COC(=O)c1cccc(NC(c2ccccn2)c2ccc3cccnc3c2O)c1 (configuration not stated) = 5.11

Item Cc1ccnc(NC(c2ccc(Cl)c(Cl)c2)c2ccc3ccc(C)nc3c2O)c1 (configuration not stated) ; assay system Botulinum neurotoxin type A (Clostridium botulinum, UniProt P0DPI0); pIC50 reported as 5.92

---

- experimental_system: Botulinum neurotoxin type A (Clostridium botulinum, UniProt P0DPI0)
Quick list: pIC50 per entry.
In textbook form, pIC50 equals minus log to base ten of the concentration in mol/L.

// below: answered compounds
[
  {
    "compound": "Oc1c(C(Nc2ccccc2Cl)c2ccccn2)ccc2cccnc12 (configuration not stated)",
    "assay_result": 5.25
  },
  {
    "compound": "Cc1cccc(NC(c2ccccc2[N+](=O)[O-])c2ccc3ccc(C)nc3c2O)n1 (configuration not stated)",
    "assay_result": 4.97
  },
  {
    "compound": "Cc1cccc(NC(c2ccccn2)c2ccc3cccnc3c2O)c1 (configuration not stated)",
    "assay_result": 4.78
  }
]

Simply: COC(=O)c1cccc(NC(c2cccnc2)c2ccc3cccnc3c2O)c1 (configuration not stated) , Botulinum neurotoxin type A (Clostridium botulinum, UniProt P0DPI0), pIC50 = 5.38

Response field pIC50 (Botulinum neurotoxin type A (Clostridium botulinum, UniProt P0DPI0)) for item CCCOC(=O)c1ccc(NC(c2ccccn2)c2ccc3cccnc3c2O)cc1 (configuration not stated) : 5.25

# value of pIC50, Botulinum neurotoxin type A (Clostridium botulinum, UniProt P0DPI0), item Cc1ccc2ccc(C(Nc3ccccn3)c3ccc(C)s3)c(O)c2n1 (configuration not stated) = 5.70

---

Here's a batch of compounds along with measured IC50 for Botulinum neurotoxin type A (Clostridium botulinum).
Numbers only; they are read as µM.

Observe how each entry below is paired with its result.
[
  {
    "compound": "Cc1cc(Cl)ccc1NC(c1cccnc1)c1ccc2cccnc2c1O (stereo unspecified)",
    "attribute_measured": "IC50",
    "value_unit": "µM",
    "assay_result": 2.3
  },
  {
    "compound": "Oc1c(C(Nc2ccccn2)c2ccc(F)cc2)ccc2cccnc12 (stereo unspecified)",
    "attribute_measured": "IC50",
    "value_unit": "µM",
    "assay_result": 7.1
  },
  {
    "compound": "COc1ccc(C(Nc2ccccn2)c2ccc3cccnc3c2O)cc1OC (stereo unspecified)",
    "attribute_measured": "IC50",
    "value_unit": "µM",
    "assay_result": 6.2
  },
  {
    "compound": "Cc1ccnc(NC(c2ccccn2)c2ccc3cccnc3c2O)c1 (stereo unspecified)",
    "attribute_measured": "IC50",
    "value_unit": "µM",
    "assay_result": 13.4
  },
  {
    "compound": "Cc1ccc2c(Cl)cc(I)c(O)c2n1",
    "attribute_measured": "IC50",
    "value_unit": "µM",
    "assay_result": 14.1
  },
  {
    "compound": "COc1ccc(C)cc1NC(c1ccccn1)c1ccc2cccnc2c1O (stereo unspecified)",
    "attribute_measured": "IC50",
    "value_unit": "µM",
    "assay_result": 5.1
  },
  {
    "compound": "Oc1c(C(Nc2ccccc2Cl)c2cccnc2)ccc2cccnc12 (stereo unspecified)",
    "attribute_measured": "IC50",
    "value_unit": "µM",
    "assay_result": 1.9
  },
  {
    "compound": "Cc1ccnc(NC(c2ccccc2[N+](=O)[O-])c2ccc3ccc(C)nc3c2O)c1 (stereo unspecified)",
    "attribute_measured": "IC50",
    "value_unit": "µM",
    "assay_result": 0.9
  },
  {
    "compound": "CCCOC(=O)c1ccc(NC(c2cccnc2)c2ccc3cccnc3c2O)cc1 (stereo unspecified)",
    "attribute_measured": "IC50",
    "value_unit": "µM",
    "assay_result": 3
  },
  {
    "compound": "CCOC(=O)c1ccc(NC(c2cccnc2)c2ccc3cccnc3c2O)cc1 (stereo unspecified)",
    "attribute_measured": "IC50",
    "value_unit": "µM",
    "assay_result": 2.9
  }
]

Considering Oc1c(C(Nc2ccccn2)c2ccccc2)ccc2cccnc12 (stereo unspecified) , its IC50 with Botulinum neurotoxin type A (Clostridium botulinum) was recorded as 2.2

Measured IC50 for this entry Cc1ccc(C(Nc2ccccn2)c2ccc3ccc(C)nc3c2O)cc1 (stereo unspecified) on Botulinum neurotoxin type A (Clostridium botulinum): 2.1

IC50 of O=C(NC(c1ccccc1Cl)c1ccc2cccnc2c1O)c1ccccc1 (stereo unspecified) , assay on Botulinum neurotoxin type A (Clostridium botulinum), is 0.8

Short answer on Botulinum neurotoxin type A (Clostridium botulinum) for Cc1ccc2c(Cl)cc(Cl)c(O)c2n1 , IC50: 10.1
